inhibition values by entry
Assayed Target: Fibroblast growth factor receptor 4 (Homo sapiens) (UniProt P22455);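 also: reported figure is the averaged percent inhibition of FGFR4, from the GSK PKIS kinase screening panel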
Sequence (P22455 22-802 limits assumed): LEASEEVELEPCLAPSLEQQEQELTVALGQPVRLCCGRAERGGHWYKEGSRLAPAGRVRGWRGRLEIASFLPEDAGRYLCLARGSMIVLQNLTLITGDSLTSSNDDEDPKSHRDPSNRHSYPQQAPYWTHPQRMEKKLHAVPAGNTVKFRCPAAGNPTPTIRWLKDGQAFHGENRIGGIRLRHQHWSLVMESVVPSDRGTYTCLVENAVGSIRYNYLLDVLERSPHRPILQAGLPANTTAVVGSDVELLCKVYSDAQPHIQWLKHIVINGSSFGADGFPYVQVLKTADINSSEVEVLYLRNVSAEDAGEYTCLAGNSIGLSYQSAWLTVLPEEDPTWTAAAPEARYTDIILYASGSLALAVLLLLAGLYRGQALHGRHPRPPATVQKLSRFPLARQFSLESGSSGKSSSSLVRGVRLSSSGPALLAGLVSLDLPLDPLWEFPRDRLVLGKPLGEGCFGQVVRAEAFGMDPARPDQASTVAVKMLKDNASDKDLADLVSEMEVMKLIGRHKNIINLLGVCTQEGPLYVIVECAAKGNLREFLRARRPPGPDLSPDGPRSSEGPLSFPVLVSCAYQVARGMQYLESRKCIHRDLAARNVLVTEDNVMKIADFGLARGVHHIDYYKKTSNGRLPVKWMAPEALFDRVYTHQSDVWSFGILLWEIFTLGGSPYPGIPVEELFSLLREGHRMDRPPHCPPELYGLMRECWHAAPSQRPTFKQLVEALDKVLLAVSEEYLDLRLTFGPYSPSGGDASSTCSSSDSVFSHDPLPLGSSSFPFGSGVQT
Condition Parameters: at 1 µM
// return numeric value only (unit: %, not printed)

Exercise: Fill in: inhibition of "O=C(O[C@H]1CN[C@H](C#Cc2cc3ncnc(Nc4ccc(OCc5cccc(F)c5)c(Cl)c4)c3s2)C1)N1CCOCC1" is ___
Solution: -0.16

Exercise: Fill in: inhibition of "Cc1cc(O)cc(C)c1/C=C/c1cncc(C(=O)OC(C)(C)C)c1" is ___
Solution: 2.64

Exercise: Fill in: inhibition of "CCS(=O)(=O)c1ccc(OC)c(Nc2ncc(-c3cccc(C(C)=O)c3)o2)c1" is ___
Solution: 3.95

* * *

inhibition values by entry
Assayed Target: Protein kinase C theta type (Homo sapiens);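 also: reported figure is the mean percent inhibition of PKC-theta, from the GSK PKIS screen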
Condition Parameters: at 0.1 µM
// return numeric value only (unit: %, not printed)

Below are worked cases with known answers.
Compound	Assayed Target	Reading
CN(C)CCNC(=O)Nc1ccc(N(C)c2ccnc(Nc3ccc(CS(C)(=O)=O)cc3)n2)cc1	Protein kinase C theta type (Homo sapiens)	2.29
CCS(=O)(=O)c1ccc(OC)c(Nc2ncc(-c3cccc(C(C)=O)c3)o2)c1	Protein kinase C theta type (Homo sapiens)	2.27
CC1(C)CC(n2cnc(-c3ccc(F)cc3)c2-c2ccnc(N)n2)CC(C)(C)N1	Protein kinase C theta type (Homo sapiens)	0.49
CS(=O)(=O)CCNCc1ccc(-c2ccc3ncnc(Nc4ccc(OCc5cccc(C(F)(F)F)c5)cc4)c3c2)o1	Protein kinase C theta type (Homo sapiens)	2.36
O=C(O[C@H]1CN[C@H](C#Cc2cc3ncnc(Nc4ccc5c(ccn5Cc5cc(F)ccc5F)c4)c3s2)C1)N1CCOCC1	Protein kinase C theta type (Homo sapiens)	1.84

Exercise: Fill in: inhibition of "COc1cc(N2CCN(C(C)C)CC2)ccc1Nc1nc(Nc2cccc3ncccc23)c2cc[nH]c2n1" is ___
Solution: -0.84

Exercise: Fill in: inhibition of "N#Cc1ccc2c(-c3ccnc(NC4CC4)n3)c(-c3ccc(F)cc3)nn2c1" is ___
Solution: 1.35

Exercise: Fill in: inhibition of "N#Cc1cccc(Nc2ncc(-c3ccccc3)o2)c1" is ___
Solution: 1.33

Exercise: Fill in: inhibition of "Cn1c(-c2nonc2N)nc2cnccc21" is ___
Solution: 1.13

Exercise: Fill in: inhibition of "Cc1nnc(-c2cccc(-c3ccc(C(=O)NCC4CC4)cc3)c2)o1" is ___
Solution: 3.27

Exercise: Fill in: inhibition of "CCn1c(-c2nonc2N)nc2cncc(C(=O)NCCNC)c21" is ___
Solution: 8.91

Exercise: Fill in: inhibition of "COc1cc(Nc2ncc(-c3ccccc3)o2)cc(OC)c1" is ___
Solution: 2.43

* * *

Assayed Target: Serine/threonine-protein kinase Nek6 (Homo sapiens);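 also: values are mean inhibition of NEK6 from the GSK PKIS screen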
Condition Parameters: at 1 µM
Attribute Measured: inhibition (%)
// return numeric value only (unit: %, not printed)

Cpd Smiles	Reading
CS(=O)(=O)Nc1ccc(-c2cc(-c3ccccc3)cc(C(N)=O)c2N)cc1	-0.5
CC1(C)CC(n2cnc(-c3ccc(F)cc3)c2-c2ccnc(N)n2)CC(C)(C)N1	0.37
COc1ccccc1-c1cc(/C=C2\C(=O)Nc3ncc(Br)cc32)cc(Br)c1O	0.04
CCS(=O)(=O)c1ccc(OC)c(Nc2ncc(-c3cccc(F)c3)o2)c1	1.24
CCn1c(-c2nonc2N)nc2cncc(C(=O)NCCNC)c21	0.9

Exercise: Fill in: inhibition of "CCN1CCC(C(=O)Nc2n[nH]c3nnc(-c4cccc(F)c4F)cc23)CC1" is ___
Solution: -1.06

Exercise: Fill in: inhibition of "COC(=O)Nc1nc2ccc(Oc3ccc(NC(=O)Nc4cc(C(F)(F)F)ccc4F)cc3)cc2s1" is ___
Solution: -4.58

Exercise: Fill in: inhibition of "COC(=O)Nc1nc2cc(Oc3ccc(NC(=O)Nc4ccccc4)cc3)ccc2[nH]1" is ___
Solution: 0.95

Exercise: Fill in: inhibition of "CNC(=O)c1sc(-n2cnc3cc(OC)c(OC)cc32)cc1OCc1ccccc1C(F)(F)F" is ___
Solution: 1.86

Exercise: Fill in: inhibition of "COc1c(C(N)=O)cc(-c2ccc(Cl)cc2)cc1-c1ccc(S(N)(=O)=O)cc1" is ___
Solution: 1.71

* * *

Assayed Target: Hepatocyte growth factor receptor (Homo sapiens);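 also: reported values are means of MET inhibition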
Condition Parameters: at 0.1 µM
inhibition values by entry
// return numeric value only (unit: %, not printed)

Below are worked cases with known answers.
Cpd Smiles	Unit Tag	inhibition
COc1ccc(-c2nn3ncccc3c2-c2ccnc(Nc3ccc(F)c(F)c3)n2)cc1	%	1.87
FC(F)(F)CNc1nccc(-c2cnn3ncccc23)n1	%	0.67
CCn1c(-c2nonc2N)nc2cncc(C(=O)NCCNC)c21	%	1.82
O=C1Nc2ccccc2/C1=C1\CCc2cc(O)ccc21	%	6.45
COc1ccccc1-c1cc(/C=C2\C(=O)Nc3ncc(Br)cc32)cc(Br)c1O	%	1.57

Now turn to the next molecule.
Exercise: Fill in: inhibition of "c1ccc(-c2n[nH]cc2-c2ccnc(-c3ccc(OCCn4ccnc4)cc3)c2)nc1" is ___
Solution: 4.9

* * *

Assayed Target: Rhodopsin kinase GRK7 (Homo sapiens);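 also: reported figures are mean percent inhibition of GRK7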
Condition Parameters: at 0.1 µM
inhibition values by entry
// return numeric value only (unit: %, not printed)

Exercise: Recorded inhibition for "CCS(=O)(=O)c1ccc(OC)c(Nc2ncc(-c3cccc(F)c3)o2)c1" with Rhodopsin kinase GRK7 (Homo sapiens), please?
Solution: 9.79

Exercise: Recorded inhibition for "FC(F)(F)CNc1nccc(-c2cnn3ncccc23)n1" with Rhodopsin kinase GRK7 (Homo sapiens), please?
Solution: 3.21

Exercise: Recorded inhibition for "CC1(C)CC(n2cnc(-c3ccc(F)cc3)c2-c2ccnc(N)n2)CC(C)(C)N1" with Rhodopsin kinase GRK7 (Homo sapiens), please?
Solution: -0.49

* * *

inhibition values by entry
Tested on: Platelet-derived growth factor receptor alpha (Homo sapiens), P16234 [T674I]
Sequence (P16234 whole entry T674I): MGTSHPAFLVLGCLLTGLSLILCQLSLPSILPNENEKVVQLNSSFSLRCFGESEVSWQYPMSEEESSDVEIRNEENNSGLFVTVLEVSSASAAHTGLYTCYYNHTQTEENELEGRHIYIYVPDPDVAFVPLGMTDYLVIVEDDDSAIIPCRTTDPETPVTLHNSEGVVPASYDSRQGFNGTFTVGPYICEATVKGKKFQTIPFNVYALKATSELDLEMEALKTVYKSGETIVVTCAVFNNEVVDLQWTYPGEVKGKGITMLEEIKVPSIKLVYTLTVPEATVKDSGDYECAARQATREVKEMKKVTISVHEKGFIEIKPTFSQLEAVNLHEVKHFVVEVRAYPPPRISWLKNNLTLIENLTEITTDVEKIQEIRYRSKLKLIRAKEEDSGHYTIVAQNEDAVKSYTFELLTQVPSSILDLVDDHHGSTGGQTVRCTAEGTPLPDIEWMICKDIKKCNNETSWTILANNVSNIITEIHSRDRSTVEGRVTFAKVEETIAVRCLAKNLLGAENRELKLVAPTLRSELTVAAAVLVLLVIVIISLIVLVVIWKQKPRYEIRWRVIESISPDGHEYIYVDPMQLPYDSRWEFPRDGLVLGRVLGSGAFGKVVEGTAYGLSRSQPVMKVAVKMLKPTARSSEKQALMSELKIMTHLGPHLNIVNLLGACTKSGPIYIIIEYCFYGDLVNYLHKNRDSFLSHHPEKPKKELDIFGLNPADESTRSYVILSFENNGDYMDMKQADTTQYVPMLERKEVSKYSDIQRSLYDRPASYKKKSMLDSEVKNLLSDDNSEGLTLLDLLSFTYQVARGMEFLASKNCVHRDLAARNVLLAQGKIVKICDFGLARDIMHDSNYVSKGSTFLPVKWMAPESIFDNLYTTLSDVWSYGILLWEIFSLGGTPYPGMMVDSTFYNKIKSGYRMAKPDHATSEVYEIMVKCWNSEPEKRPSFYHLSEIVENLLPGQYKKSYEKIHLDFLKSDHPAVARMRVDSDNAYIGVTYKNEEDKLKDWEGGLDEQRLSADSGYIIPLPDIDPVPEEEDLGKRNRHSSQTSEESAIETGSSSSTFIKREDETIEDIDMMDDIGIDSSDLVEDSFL
Condition Parameters: at 1 µM
// return numeric value only (unit: %, not printed)

Below are worked cases with known answers.
Cpd Smiles	Assayed Target	Unit Tag	inhibition
CNC(=O)c1sc(-n2cnc3cc(OC)c(OC)cc32)cc1OCc1ccccc1C(F)(F)F	Platelet-derived growth factor receptor alpha (Homo sapiens), P16234 [T674I]	%	9.43
CS(=O)(=O)CCNCc1ccc(-c2ccc3ncnc(Nc4ccc(OCc5ccccc5)cc4)c3c2)o1	Platelet-derived growth factor receptor alpha (Homo sapiens), P16234 [T674I]	%	4.61
c1ccc(-c2n[nH]cc2-c2ccnc(-c3ccc(OCCn4ccnc4)cc3)c2)nc1	Platelet-derived growth factor receptor alpha (Homo sapiens), P16234 [T674I]	%	6.32

Exercise: Fill in: inhibition of "FC(F)(F)CNc1nccc(-c2cnn3ncccc23)n1" is ___
Solution: 4.54

Exercise: Fill in: inhibition of "Fc1ccc(Nc2nccc(-c3c(-c4ccc(C(F)(F)F)cc4)nn4ncccc34)n2)cc1F" is ___
Solution: 6.66

* * *

Assayed Target: Ribosomal protein S6 kinase beta-1 (Homo sapiens) (UniProt P23443);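 also: reported value is the mean inhibition of p70S6K1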
Sequence (P23443 whole entry, looked up): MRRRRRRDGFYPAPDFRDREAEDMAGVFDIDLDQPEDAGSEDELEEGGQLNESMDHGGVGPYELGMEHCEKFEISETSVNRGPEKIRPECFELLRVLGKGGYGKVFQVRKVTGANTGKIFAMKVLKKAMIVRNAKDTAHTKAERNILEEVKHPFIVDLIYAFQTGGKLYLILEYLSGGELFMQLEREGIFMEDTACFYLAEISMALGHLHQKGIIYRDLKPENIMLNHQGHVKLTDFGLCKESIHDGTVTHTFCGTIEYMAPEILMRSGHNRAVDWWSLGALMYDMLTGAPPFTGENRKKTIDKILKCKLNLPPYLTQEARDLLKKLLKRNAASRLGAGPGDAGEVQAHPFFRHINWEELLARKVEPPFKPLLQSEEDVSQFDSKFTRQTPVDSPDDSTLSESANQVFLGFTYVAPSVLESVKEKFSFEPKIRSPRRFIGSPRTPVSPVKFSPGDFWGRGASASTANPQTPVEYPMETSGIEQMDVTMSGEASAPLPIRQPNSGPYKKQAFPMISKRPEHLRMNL
Condition Parameters: at 0.1 µM
Attribute Measured: inhibition (%)
// return numeric value only (unit: %, not printed)

Cpd Smiles	Assayed Target	inhibition, %
CCn1c(-c2nonc2N)nc2cncc(C(=O)NCCNC)c21	Ribosomal protein S6 kinase beta-1 (Homo sapiens) (UniProt P23443)	31.9
CCOc1ccc2c(-c3ccnc(Nc4cc(OC)cc(C(F)(F)F)c4)n3)cnn2n1	Ribosomal protein S6 kinase beta-1 (Homo sapiens) (UniProt P23443)	0.27
Cc1cc(O)cc(C)c1/C=C/c1cncc(C(N)=O)c1	Ribosomal protein S6 kinase beta-1 (Homo sapiens) (UniProt P23443)	1.07
CC(C)c1ccc(-c2cc(-c3c[nH]nc3-c3ccccn3)ccn2)cc1	Ribosomal protein S6 kinase beta-1 (Homo sapiens) (UniProt P23443)	0.17
CN1CCC(n2cnc(-c3ccc(F)cc3)c2-c2ccnc(NCCO)n2)CC1	Ribosomal protein S6 kinase beta-1 (Homo sapiens) (UniProt P23443)	0.69
NS(=O)(=O)c1ccc(N/N=C2\C(=O)Nc3cccc(CCc4ccncc4)c32)cc1	Ribosomal protein S6 kinase beta-1 (Homo sapiens) (UniProt P23443)	0.08

Now turn to the next molecule.
Exercise: Recorded inhibition for "CCCNc1cccc(-n2ncc3c(N/N=C/c4ccncc4)ncnc32)c1" with Ribosomal protein S6 kinase beta-1 (Homo sapiens) (UniProt P23443), please?
Solution: 1.2

* * *

Assayed Target: Serine/threonine-protein kinase BRSK1 (Homo sapiens) (UniProt Q8TDC3);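 also: each value is a mean percent inhibition of BRSK1 kinase activity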
Sequence (Q8TDC3 whole entry): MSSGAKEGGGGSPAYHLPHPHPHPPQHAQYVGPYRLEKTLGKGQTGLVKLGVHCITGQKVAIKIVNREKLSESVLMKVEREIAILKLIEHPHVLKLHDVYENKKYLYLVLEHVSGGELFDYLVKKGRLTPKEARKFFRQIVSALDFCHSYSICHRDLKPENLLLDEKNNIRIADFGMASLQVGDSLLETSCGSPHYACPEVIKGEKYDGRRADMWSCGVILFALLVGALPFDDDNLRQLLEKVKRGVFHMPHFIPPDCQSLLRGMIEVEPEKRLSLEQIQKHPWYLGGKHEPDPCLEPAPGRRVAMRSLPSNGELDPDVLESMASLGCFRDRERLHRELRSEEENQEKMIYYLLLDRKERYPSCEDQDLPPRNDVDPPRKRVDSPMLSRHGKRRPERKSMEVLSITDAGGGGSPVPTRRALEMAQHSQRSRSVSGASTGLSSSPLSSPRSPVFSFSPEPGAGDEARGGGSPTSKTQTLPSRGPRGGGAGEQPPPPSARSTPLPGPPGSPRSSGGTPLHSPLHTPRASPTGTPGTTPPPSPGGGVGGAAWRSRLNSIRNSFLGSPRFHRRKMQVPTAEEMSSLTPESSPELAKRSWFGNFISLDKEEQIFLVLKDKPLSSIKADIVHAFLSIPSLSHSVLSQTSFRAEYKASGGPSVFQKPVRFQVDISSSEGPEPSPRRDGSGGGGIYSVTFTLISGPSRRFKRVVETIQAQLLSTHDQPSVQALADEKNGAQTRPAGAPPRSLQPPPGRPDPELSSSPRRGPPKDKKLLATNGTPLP
Condition Parameters: at 1 µM
inhibition values by entry
// return numeric value only (unit: %, not printed)

Compound	inhibition (%)
COc1cc(N2CCN(C(C)C)CC2)ccc1Nc1nc(Nc2cccc3ncccc23)c2cc[nH]c2n1	0.86
COc1cc(Nc2ncc(-c3ccccc3)o2)cc(OC)c1	8.79
CC1=C(C(=O)Nc2ccc3[nH]ncc3c2)C(c2ccc(F)cc2)N=C(c2ccc(C(F)(F)F)nc2)N1 (centres undefined)	3.19

Exercise: Fill in: inhibition of "c1ccc(-c2n[nH]cc2-c2ccnc(-c3ccc(OCCn4ccnc4)cc3)c2)nc1" is ___
Solution: 1.98

Exercise: Fill in: inhibition of "CS(=O)(=O)Nc1ccc(-c2cc(-c3ccccc3)cc(C(N)=O)c2N)cc1" is ___
Solution: -0.05

Exercise: Fill in: inhibition of "CS(=O)(=O)CCNCc1ccoc1-c1ccc2ncnc(Nc3ccc(OCc4ccccc4)cc3)c2c1" is ___
Solution: -0.87

Exercise: Fill in: inhibition of "N#Cc1cccc(Nc2ncc(-c3ccccc3)o2)c1" is ___
Solution: 1.82

Exercise: Fill in: inhibition of "Cc1cc(O)cc(C)c1/C=C/c1cncc(C(=O)OC(C)(C)C)c1" is ___
Solution: 5.15

Exercise: Fill in: inhibition of "CC(C)c1ccc(-c2cc(-c3c[nH]nc3-c3ccccn3)ccn2)cc1" is ___
Solution: -0.92

Exercise: Fill in: inhibition of "CCN1CCC(C(=O)Nc2n[nH]c3nnc(-c4cccc(F)c4F)cc23)CC1" is ___
Solution: 1.41

Exercise: Fill in: inhibition of "CCn1c(-c2nonc2N)nc2cncc(C(=O)NCCNC)c21" is ___
Solution: 6.23

Exercise: Fill in: inhibition of "CCCNc1cccc(-n2ncc3c(N/N=C/c4ccncc4)ncnc32)c1" is ___
Solution: 24.7

Exercise: Fill in: inhibition of "c1cnn2ncc(-c3ccnc(NCCCN4CCOCC4)n3)c2c1" is ___
Solution: 1.97

Exercise: Fill in: inhibition of "CS(=O)(=O)CCNCc1ccc(-c2ccc3ncnc(Nc4ccc(OCc5cccc(C(F)(F)F)c5)cc4)c3c2)o1" is ___
Solution: 4.04

Exercise: Fill in: inhibition of "O=C(O[C@H]1CN[C@H](C#Cc2cc3ncnc(Nc4ccc5c(ccn5Cc5cc(F)ccc5F)c4)c3s2)C1)N1CCOCC1" is ___
Solution: 0.38

Exercise: Fill in: inhibition of "COc1ccccc1-c1cc(/C=C2\C(=O)Nc3ncc(Br)cc32)cc(Br)c1O" is ___
Solution: 5.82

Exercise: Fill in: inhibition of "O=C(O[C@H]1CN[C@H](C#Cc2cc3ncnc(Nc4ccc5c(cnn5Cc5ccccc5)c4)c3s2)C1)N1CCOCC1" is ___
Solution: 2.54
